target: human endothelin receptor ETA (Homo sapiens); construct: expressed in transfected cells; host or cells: CHO cells (membrane fraction); assay: Radioiodinated endothelin-1 binding to membrane fraction of CHO cells expressing human endothelin receptor ETA; details: radioactive-iodine-labeled endothelin-1, 25° C., one hour
Sequence (P25101 21-427): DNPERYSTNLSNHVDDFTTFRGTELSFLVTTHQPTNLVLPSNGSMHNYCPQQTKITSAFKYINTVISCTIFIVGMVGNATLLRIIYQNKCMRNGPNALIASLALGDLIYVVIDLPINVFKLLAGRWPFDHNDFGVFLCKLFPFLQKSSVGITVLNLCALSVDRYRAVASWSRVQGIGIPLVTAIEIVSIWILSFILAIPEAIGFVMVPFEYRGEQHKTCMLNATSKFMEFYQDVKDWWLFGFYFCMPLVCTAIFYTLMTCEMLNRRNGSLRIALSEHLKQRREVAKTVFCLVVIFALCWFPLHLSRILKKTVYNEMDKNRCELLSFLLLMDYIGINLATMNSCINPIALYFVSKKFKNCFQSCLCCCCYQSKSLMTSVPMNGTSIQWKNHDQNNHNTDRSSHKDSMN
*1 amine or outer side, *2 acyl side, *3 side chain or, on linkers, in order; H or OH if unused. Where a SMILES comes first, the peptide text is derived from it. [ ]: non-standard residue; d: D form. The star is where a group is joined. Piperazinyl(4-Ph) = c1ccc(N2CCN(*)CC2)cc1; X3 = COc1ccc(C)cc1N1CCN(*)CC1; X2 = COc1cccc(N2CCN(*)CC2)c1; dNle = CCCC[C@@H](N)C(=O)O; X4 = Fc1ccccc1N1CCN(*)CC1; Nle = CCCC[C@H](N)C(=O)O; CO = O=C([*:1])[*:2]; X1 = C1CCCN(*)CC1; Moc = COC(=O)*; For = O=C*
quantity: IC50 (nM)

compound	observed.result
CCCC[C@H](NC(=O)N1CCCCCC1)C(=O)N[C@H](Cc1cn(C(=O)OC)c2ccccc12)C(=O)N[C@H](CCCC)C(=O)N[C@H](CC(=O)N1CCN(c2ccccc2)CC1)C(=O)O [W. Ex. 10] ({X1-CO}-[Nle][dW](Moc)[dNle][dD](Piperazinyl(4-Ph))-OH)	34
CCCC[C@@H](NC(=O)[C@@H](Cc1cn(C(=O)OC)c2ccccc12)NC(=O)[C@H](CC(C)C)NC(=O)N1CCCCCC1)C(=O)N[C@H](CC(=O)N1CCN(c2cccc(OC)c2)CC1)C(=O)O [W. Ex. 6] ({X1-CO}-L[dW](Moc)[dNle][dD](X2)-OH)	28
CCCC[C@@H](NC(=O)[C@@H](Cc1cn(C(=O)OC)c2ccccc12)NC(=O)[C@@H](NC(=O)N1CCCCCC1)[C@@H](C)CC)C(=O)N[C@H](CC(=O)N1CCN(c2ccccc2)CC1)C(=O)O [W. Ex. 9] ({X1-CO}-I[dW](Moc)[dNle][dD](Piperazinyl(4-Ph))-OH)	21
CCCC[C@@H](NC(=O)[C@@H](Cc1cn(C(=O)OC)c2ccccc12)NC(=O)[C@H](CC(C)C)NC(=O)N1CCCCCC1)C(=O)N[C@H](CC(=O)N1CCN(c2ccccc2F)CC1)C(=O)O [W. Ex. 8] ({X1-CO}-L[dW](Moc)[dNle][dD](X4)-OH)	18

[P] CCCC[C@@H](NC(=O)[C@@H](Cc1cn(C(=O)OC)c2ccccc12)NC(=O)[C@H](CC(C)C)NC(=O)N1CCCCCC1)C(=O)N[C@H](CC(=O)N1CCN(c2cc(C)ccc2OC)CC1)C(=O)O [W. Ex. 7] ({X1-CO}-L[dW](Moc)[dNle][dD](X3)-OH)
[Q] CCCC[C@@H](NC(=O)[C@@H](Cc1cn(C(=O)OC)c2ccccc12)NC(=O)[C@H](CC(C)C)NC(=O)N1CCCCCC1)C(=O)N[C@H](CCC(=O)O)C(=O)N1CCN(c2ccccc2)CC1 [W. Ex. 4] ({X1-CO}-L[dW](Moc)[dNle][dE]-{Piperazinyl(4-Ph)})
[R] CCCC[C@@H](NC(=O)[C@@H](Cc1cn(C=O)c2ccccc12)NC(=O)[C@H](CC(C)C)NC(=O)N1CCCCCC1)C(=O)N[C@H](CC(=O)N1CCN(c2ccccc2)CC1)C(=O)O [W. Ex. 1] ({X1-CO}-L[dW](For)[dNle][dD](Piperazinyl(4-Ph))-OH)
[S] CCCC[C@@H](NC(=O)[C@@H](Cc1cn(C(=O)OC)c2ccccc12)NC(=O)[C@H](CC(C)C)NC(=O)N1CCCCCC1)C(=O)N[C@H](CC(=O)N1CCN(c2ccccc2)CC1)C(=O)O [W. Ex. 2] ({X1-CO}-L[dW](Moc)[dNle][dD](Piperazinyl(4-Ph))-OH)
# rank by IC50, ascending (min first) Return the labels ranked in the requested order, please.
R, S, Q, P
(R: 1.8 nM, S: 11 nM, Q: 23 nM, P: 49 nM)
